- System: Aβ formation in H4 cells stably transfected to overexpress the HPLAP-APP fusion protein
- assay_summary: Inhibition of β-amyloid peptide formation in human H4 cells
- Type: cell-based
- cond: Homo sapiens; H4 cells overexpressing HPLAP-APP, 18 hrs at 37° C.
parameter: IC50

Example entries begin here.
NC(=O)[C@@H]1CCCC[C@@H]1N(Cc1ccc(C(F)(F)F)cc1)S(=O)(=O)c1ccc(Cl)cc1 (relative stereo): 50 to 500 nM
NC(=O)[C@H]1CCCC[C@H]1N(Cc1ccc(OC(F)(F)F)c(Cl)c1)S(=O)(=O)c1ccc(Cl)cc1: 50 to 500 nM
NC(=O)[C@H]1CCCC[C@H]1N(Cc1ccc(Cl)s1)S(=O)(=O)c1ccc(Cl)cc1: ≤ 50 nM

Switching to the query record.
[in] // returns reported IC50 for input CCNC(=O)c1ccc(CN([C@H]2CCCCC[C@H]2C(N)=O)S(=O)(=O)c2ccc(Cl)cc2)cc1 (relative stereo)
[out] ≤ 50 nM
